# EXPERIMENT: Pharmacokinetics in plasma and lung in mouse, intratracheal instillation
# Type: in vivo
# TEST CONDITIONS: male CD1 mice, 1 hr
QUANTITY: % Dose in Lung 1 hr (%)

Would you please look over these solved cases?
MOLECULE SMILES	QUANTITY	ASSAY RESULT
COC[C@H](C(=O)Nc1cccc2c(-c3nc(Nc4ccc5sc(CO)nc5c4)ncc3F)c[nH]c12)N1CCN(C)CC1	% Dose in Lung 1 hr	19.4
COC[C@H](C(=O)Nc1cccc2c(-c3nc(Nc4ccnc(CO)c4)ncc3F)c[nH]c12)N1CCN(C)CC1	% Dose in Lung 1 hr	13.4
COC[C@H](C(=O)Nc1cccc2c(-c3nc(Nc4ccc(-c5cnco5)nc4)ncc3F)c[nH]c12)N1CCN(C)CC1	% Dose in Lung 1 hr	23.0

[1] CCC(=O)Nc1ccc(Nc2ncc(F)c(-c3c[nH]c4c(NC(=O)[C@@H](COC)N5CCN(C)CC5)cccc34)n2)cn1
[2] COC[C@H](C(=O)Nc1cccc2c(-c3nc(Nc4ccc(NC(=O)CO)nc4)ncc3F)c[nH]c12)N1CCN(C)CC1
[Q] Of 1 and 2 , which one carries the higher reported % Dose in Lung 1 hr? Please respond with the label that marks your chosen entry.
[A] 1
(1: 54.0%, 2: 13.4%)

----------
# ASSAY SYSTEM: JAK2 (Homo sapiens)
# Construct: purchased Carna Biosciences
# Sequence (O60674 whole entry): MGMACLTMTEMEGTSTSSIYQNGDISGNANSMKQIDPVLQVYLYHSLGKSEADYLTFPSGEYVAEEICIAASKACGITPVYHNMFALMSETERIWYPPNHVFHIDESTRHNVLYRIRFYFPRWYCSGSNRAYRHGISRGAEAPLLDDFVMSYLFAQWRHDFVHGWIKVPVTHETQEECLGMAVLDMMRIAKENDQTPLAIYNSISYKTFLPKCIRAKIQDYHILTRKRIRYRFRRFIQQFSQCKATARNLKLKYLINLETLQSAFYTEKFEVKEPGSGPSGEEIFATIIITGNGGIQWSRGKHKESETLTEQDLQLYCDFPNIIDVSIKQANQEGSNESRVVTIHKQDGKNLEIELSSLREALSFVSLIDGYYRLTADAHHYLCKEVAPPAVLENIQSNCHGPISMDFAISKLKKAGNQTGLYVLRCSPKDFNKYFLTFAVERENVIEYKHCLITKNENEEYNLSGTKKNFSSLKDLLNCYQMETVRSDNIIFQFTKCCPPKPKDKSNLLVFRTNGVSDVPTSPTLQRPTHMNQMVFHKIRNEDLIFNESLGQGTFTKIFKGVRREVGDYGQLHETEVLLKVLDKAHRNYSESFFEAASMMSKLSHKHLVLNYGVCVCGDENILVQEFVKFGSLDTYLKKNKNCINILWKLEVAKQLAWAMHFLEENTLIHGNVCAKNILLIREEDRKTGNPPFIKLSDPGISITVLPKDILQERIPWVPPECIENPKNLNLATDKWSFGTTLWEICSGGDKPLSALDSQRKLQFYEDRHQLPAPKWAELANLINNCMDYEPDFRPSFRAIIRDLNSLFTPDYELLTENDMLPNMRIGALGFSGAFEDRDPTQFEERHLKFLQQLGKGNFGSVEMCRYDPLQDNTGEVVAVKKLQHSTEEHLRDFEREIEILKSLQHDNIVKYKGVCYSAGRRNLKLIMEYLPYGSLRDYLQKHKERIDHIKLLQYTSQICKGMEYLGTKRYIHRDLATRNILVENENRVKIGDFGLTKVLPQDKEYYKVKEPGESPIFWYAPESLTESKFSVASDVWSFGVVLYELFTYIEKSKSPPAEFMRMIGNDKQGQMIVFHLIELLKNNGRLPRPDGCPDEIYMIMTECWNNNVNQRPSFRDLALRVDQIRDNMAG
# EXPERIMENT: Lance Ultra Kinase Assay, recombinant JAK2
# Assay type: biochemical
# TEST CONDITIONS: 5 mM ATP
# Description: Recombinant JAK1, JAK2, JAK3 and TYK2 purchased from Carna Biosciences. The inhibition potency of compounds against JAK1, JAK2, JAK3 and TYK2 was assessed using Lance Ultra Kinase Assay. In brief, recombinant kinases were pre-incubated in the presence or absence of compound at room temperature for 15 minutes. […] The fluorescence was measured at 615 nm and 665 nm, respectively with excitation wavelength at 320 nm. The calculated signal ratio of 665 nm/615 nm is proportional to the kinase activity.
QUANTITY: IC50 (nM)

Would you please look over these solved cases?
MOLECULE SMILES	VALUE UNITS	ASSAY RESULT
COC[C@H](C(=O)Nc1cccc2c(-c3nc(Nc4ccnc(C(=O)OC)c4)ncc3F)c[nH]c12)N1CCN(C)CC1	nM	81
COC[C@H](C(=O)Nc1cccc2c(-c3nc(Nc4cncc(C(=O)OC)c4)ncc3F)c[nH]c12)N1CCN(C)CC1	nM	125

[a] COC[C@H](C(=O)Nc1cccc2c(-c3nc(Nc4ccc5[nH]ncc5c4)ncc3F)c[nH]c12)N1CCN(C)CC1
[b] COC[C@H](C(=O)Nc1cccc2c(-c3nc(Nc4ccc5nc[nH]c5c4)ncc3F)c[nH]c12)N1CCN(C)CC1
[Q] Decide: a or b , by lowest recorded IC50. Please respond with the label that marks your chosen entry.
[A] a
(a: 87 nM, b: 131 nM)

----------
# EXPERIMENT: Metabolic stability in human liver microsome
# Assay type: in vitro ADME
# TEST CONDITIONS: human, pooled human liver microsomes, pH 7.4, 1 μM compound, 1 mg/mL microsomes, NADPH
QUANTITY: microsomal CLint at 1 μM

MOLECULE SMILES	microsomal CLint at 1 μM
COC[C@H](C(=O)Nc1cccc2c(-c3nc(Nc4ccc(C(=O)OC)nc4)ncc3F)c[nH]c12)N1CCN(C)CC1	> 300 µL/min/mg

[Q] Please report microsomal CLint at 1 μM for the following molecule: CCOC(=O)c1ccc(Nc2ncc(F)c(-c3c[nH]c4c(NC(=O)[C@@H](COC)N5CCN(C)CC5)cccc34)n2)cn1
[A] > 300 µL/min/mg

[Q] Please report microsomal CLint at 1 μM for the following molecule: COC[C@H](C(=O)Nc1cccc2c(-c3nc(Nc4ccc5c(C)n[nH]c5c4)ncc3F)c[nH]c12)N1CCN(C)CC1
[A] 57.2 µL/min/mg

[Q] Please report microsomal CLint at 1 μM for the following molecule: COC[C@H](C(=O)Nc1cccc2c(-c3nc(Nc4cnc(C(=O)OC)c(C)c4)ncc3F)c[nH]c12)N1CCN(C)CC1
[A] > 300 µL/min/mg

[Q] Please report microsomal CLint at 1 μM for the following molecule: COC[C@H](C(=O)Nc1cccc2c(-c3nc(Nc4ccnc(CCC(=O)OC)c4)ncc3F)c[nH]c12)N1CCN(C)CC1
[A] > 300 µL/min/mg
